System: ER, RARα and RXRα LBDs
METHOD DESCRIPTION: GST pull-down of TIF2 polypeptides with NR LBDs
Assay type: binding
TEST PARAMETERS: in vitro, with or without 10^−6 M ligand
READOUT TYPE: binding to NRs (ER, RARα LBDs)

Input: Would you kindly share the measured binding to NRs (ER, RARα LBDs) for TIF2.2 (TIF2 amino acids 1288-1464) (other, In-vitro-translated; also called AD2) NPRIPQANAQQFPFPPNYGISQQPDPGFTGATTPQSPLMSPRMAHTQSPMMQQSQANPAYQAPSDINGWAQGNMGGNSMFSQQSPPHFGQQANTSMYSNNMNINVSMATNTGGMSSMNQMTGQISMTSVTSVSTSGLSSMGPEQVNDPALRGGNLFPNQLPGMDMIKQEGDTTRKYC ?
Output: cannot bind NRs

Input: Would you kindly share the measured binding to NRs (ER, RARα LBDs) for TIF2.8 (TIF2 amino acids 1010-1179) (other, In-vitro-translated; also called minimal AD1) GPSELEMNMGGPQYSQQQAPPNQTAPWPESILPIDQASFASQNRQPFGSSPDDLLCPHPAAESPSDEGALLDQLYLALRNFDGLEEIDRALGIPELVSQSQAVDPEQFSSQDSNIMLEQKAPVFPQQYASQAQMAQGSYSPMQDPNFHTMGQRPSYATLRMQPRPGLRPT ?
Output: cannot bind NRs

The reported measurements were obtained from patent US6861508B2.
